Molecular target: vanilloid receptor 1 (VR1/TRPV1) of the rat (Rattus norvegicus, UniProt O35433)
Sequence (O35433 whole entry): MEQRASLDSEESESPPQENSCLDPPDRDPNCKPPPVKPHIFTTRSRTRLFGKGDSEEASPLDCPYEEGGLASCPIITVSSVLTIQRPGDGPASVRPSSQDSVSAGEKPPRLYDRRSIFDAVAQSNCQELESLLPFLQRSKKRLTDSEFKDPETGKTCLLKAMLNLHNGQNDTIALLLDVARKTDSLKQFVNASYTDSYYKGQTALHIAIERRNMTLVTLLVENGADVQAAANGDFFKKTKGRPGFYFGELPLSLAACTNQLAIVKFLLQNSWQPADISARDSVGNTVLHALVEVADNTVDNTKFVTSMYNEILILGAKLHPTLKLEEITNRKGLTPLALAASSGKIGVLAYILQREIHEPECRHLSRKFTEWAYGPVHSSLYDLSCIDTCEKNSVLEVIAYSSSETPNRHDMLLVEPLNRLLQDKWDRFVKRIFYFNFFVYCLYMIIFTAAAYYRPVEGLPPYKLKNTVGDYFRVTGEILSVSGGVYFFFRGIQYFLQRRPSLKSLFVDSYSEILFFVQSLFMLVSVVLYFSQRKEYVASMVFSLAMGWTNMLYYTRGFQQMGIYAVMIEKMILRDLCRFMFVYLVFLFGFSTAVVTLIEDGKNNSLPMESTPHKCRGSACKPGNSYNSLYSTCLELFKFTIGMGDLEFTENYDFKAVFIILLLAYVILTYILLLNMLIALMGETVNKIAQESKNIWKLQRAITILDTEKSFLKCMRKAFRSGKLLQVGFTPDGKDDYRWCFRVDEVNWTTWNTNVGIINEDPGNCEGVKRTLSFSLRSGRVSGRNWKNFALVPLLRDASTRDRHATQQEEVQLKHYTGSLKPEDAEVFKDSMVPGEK
Experiment: FLIPR Ca2+ functional study on rat vanilloid receptor 1 (rat dorsal root ganglia cells or CHO K1 cells transfected with rat VR1)
Details: FLIPR, agonistic action
Reported Endpoint: EC50 (µM)
Answers are plain numbers, in µM.

molecule="O=C(Nc1ccccc1)OCC1(COC(=O)Nc2ccccc2)CS(=O)(=O)c2ccccc2C1=O [Example Compound 43]" measurement_target="vanilloid receptor 1 (VR1/TRPV1) of the rat (Rattus norvegicus, UniProt O35433)" recorded_value=25.4
molecule="Cc1cccc2c1C(=O)C(COC(=O)Nc1ccccc1)(COC(=O)Nc1ccccc1)CS2 [Example Compound 40]" measurement_target="vanilloid receptor 1 (VR1/TRPV1) of the rat (Rattus norvegicus, UniProt O35433)" recorded_value=4.1
molecule="Cc1ccc2c(c1)[S+]([O-])CC(COC(=O)Nc1ccccc1)(COC(=O)Nc1ccccc1)C2=O (stereo not shown) [Example Compound 47]" measurement_target="vanilloid receptor 1 (VR1/TRPV1) of the rat (Rattus norvegicus, UniProt O35433)" recorded_value=20.3

So what's the measured EC50 for this one? Cc1cccc2c1C(=O)C(COC(=O)Nc1ccccc1)(COC(=O)Nc1ccccc1)CS2(=O)=O [Example Compound 46]
13.8

###

For each record, write down the corresponding melting point.

Please review the following examples before continuing.
molecule="Cc1ccc2c(c1)S(=O)(=O)CC(COC(=O)Nc1ccccc1)(COC(=O)Nc1ccccc1)C2=O [Example Compound 48]" reported_endpoint="melting point" recorded_value="85 to 95 °C"
molecule="O=C(Nc1ccccc1)OCC1(COC(=O)Nc2ccccc2)CS(=O)(=O)c2ccccc2C1=O [Example Compound 43]" reported_endpoint="melting point" recorded_value="72 to 78 °C"
molecule="O=C(Nc1cccc(C(F)(F)F)c1)OCC1(COC(=O)Nc2cccc(C(F)(F)F)c2)CSc2ccccc2C1=O [Example Compound 54]" reported_endpoint="melting point" recorded_value="58 to 63 °C"
molecule="O=C(Nc1ccc(C(F)(F)F)cc1)OCC1(COC(=O)Nc2ccc(C(F)(F)F)cc2)CSc2ccccc2C1=O [Example Compound 52]" reported_endpoint="melting point" recorded_value="76 to 82 °C"
molecule="CC(C)(C)c1ccccc1NC(=O)OCC1(COC(=O)Nc2ccccc2C(C)(C)C)CSc2ccccc2C1=O [Example Compound 51]" reported_endpoint="melting point" recorded_value="62 to 68 °C"
molecule="COc1ccc(NC(=O)OCC2(COC(=O)Nc3ccc(OC)cc3)CSc3ccccc3C2=O)cc1 [Example Compound 42]" reported_endpoint="melting point" recorded_value="58 to 63 °C"

Dear colleague, could you send me melting point for each of the items below? Thanks.
1. CC(C)(C)c1ccc(NC(=O)OCC2(COC(=O)Nc3ccc(C(C)(C)C)cc3)CSc3ccccc3C2=O)cc1 [Example Compound 50]
2. Cc1ccc2c(c1)[S+]([O-])CC(COC(=O)Nc1ccccc1)(COC(=O)Nc1ccccc1)C2=O (centres unmarked) [Example Compound 47]

1: 78 to 85 °C; 2: 65 to 73 °C

###

Molecular target: human vanilloid receptor 1 (VR1) (Homo sapiens, UniProt Q8NER1)
Construct: expressed in transfected cells; host or cells: CHO K1 cells (ECACC), stably transfected
Sequence (Q8NER1 whole entry): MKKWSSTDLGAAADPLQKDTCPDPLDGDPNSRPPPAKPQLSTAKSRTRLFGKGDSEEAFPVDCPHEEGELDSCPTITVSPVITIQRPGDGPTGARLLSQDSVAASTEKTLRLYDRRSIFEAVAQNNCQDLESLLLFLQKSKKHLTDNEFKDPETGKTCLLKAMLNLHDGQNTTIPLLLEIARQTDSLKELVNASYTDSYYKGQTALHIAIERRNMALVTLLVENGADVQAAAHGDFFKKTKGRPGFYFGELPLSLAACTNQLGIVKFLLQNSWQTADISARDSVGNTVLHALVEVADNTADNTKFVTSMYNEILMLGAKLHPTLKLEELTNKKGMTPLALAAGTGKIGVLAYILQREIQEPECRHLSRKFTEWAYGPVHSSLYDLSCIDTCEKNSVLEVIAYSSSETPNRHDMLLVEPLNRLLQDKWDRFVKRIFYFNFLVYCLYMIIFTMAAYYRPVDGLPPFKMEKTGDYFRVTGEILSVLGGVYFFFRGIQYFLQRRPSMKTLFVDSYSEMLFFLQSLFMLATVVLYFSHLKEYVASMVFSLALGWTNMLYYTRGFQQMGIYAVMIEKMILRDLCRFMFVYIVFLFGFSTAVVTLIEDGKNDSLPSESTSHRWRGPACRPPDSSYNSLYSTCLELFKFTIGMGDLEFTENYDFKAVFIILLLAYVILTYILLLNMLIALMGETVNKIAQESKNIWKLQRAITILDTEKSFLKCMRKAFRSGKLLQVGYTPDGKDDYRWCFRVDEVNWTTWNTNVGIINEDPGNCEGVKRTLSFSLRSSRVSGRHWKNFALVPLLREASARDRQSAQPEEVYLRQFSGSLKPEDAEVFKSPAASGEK
Assay: FLIPR Ca2+ functional study on human vanilloid receptor 1 (CHO K1 cells transfected with human VR1)
Type: cell-based
Conditions: CHO-K1; test compound 10 μM; suppression of Ca2+ current after 100 nM capsaicin, relative to maximum inhibition with 10 μM capsaicin (CP); read-out: VR1 (human) (% inhibition compared to 10 μM CP)
Reported Endpoint: inhibition at 10 µM (%)
One number for each entry, in %.

Here are 4 molecules together with their reported answers.
molecule=CC(C)(C)c1ccc(NC(=O)OCC2(COC(=O)Nc3ccc(C(C)(C)C)cc3)CSc3ccccc3C2=O)cc1 recorded_value=0
molecule=O=C(Nc1ccccc1)OCC1(COC(=O)Nc2ccccc2)CS(=O)(=O)c2ccccc2C1=O recorded_value=9.79
molecule=COc1ccc(NC(=O)OCC2(COC(=O)Nc3ccc(OC)cc3)CSc3ccccc3C2=O)cc1 recorded_value=73.2
molecule="Cc1cccc2c1SCC(CO)(COS(=O)(=O)c1ccc(C(C)(C)C)cc1)C2=O (stereo not drawn)" recorded_value=23.8

For each of the molecules below, state inhibition at 10 µM.
1. Cc1cccc2c1C(=O)C(COC(=O)Nc1ccccc1)(COC(=O)Nc1ccccc1)CS2
2. Cc1ccc2c(c1)S(=O)(=O)CC(COC(=O)Nc1ccccc1)(COC(=O)Nc1ccccc1)C2=O
3. Cc1ccc2c(c1)[S+]([O-])CC(COC(=O)Nc1ccccc1)(COC(=O)Nc1ccccc1)C2=O (stereo not drawn)
4. O=C(Nc1ccccc1)OCC1(COC(=O)Nc2ccccc2)CSc2ccccc2C1=O
5. Cc1cccc2c1C(=O)C(COC(=O)Nc1ccccc1)(COC(=O)Nc1ccccc1)CS2(=O)=O

[96.6, 81.1, 59.2, 95, 38.5]

###

Target: vanilloid receptor 1 (VR1/TRPV1) of the rat (Rattus norvegicus)
Construct: host or cells: rat dorsal root ganglia primary cells (Ia) or CHO K1 cells stably transfected with the rat VR1 gene (Ib)
Test: FLIPR Ca2+ functional study on rat vanilloid receptor 1 (rat dorsal root ganglia cells or CHO K1 cells transfected with rat VR1)
Type: cell-based
Conditions: CHO-K1; test compound 10 μM; % activation based on Ca2+ signal after 10 μM capsaicin (CP); read-out: VR1 (rat) (% stimulation compared to 10 μM CP)
Param threshold (40%) applies to activation at 10 µM; output MET when value >= threshold, NOT MET when value < threshold.

Previously resolved entries follow.
smiles_entry=Cc1cccc2c1C(=O)C(COC(=O)Nc1ccccc1)(COC(=O)Nc1ccccc1)CS2 measurement_target="vanilloid receptor 1 (VR1/TRPV1) of the rat (Rattus norvegicus)" cat=MET
smiles_entry=CC(C)(C)c1ccc(NC(=O)OCC2(COC(=O)Nc3ccc(C(C)(C)C)cc3)CSc3ccccc3C2=O)cc1 measurement_target="vanilloid receptor 1 (VR1/TRPV1) of the rat (Rattus norvegicus)" cat="NOT MET"
smiles_entry=Cc1cccc2c1C(=O)C(COC(=O)Nc1ccccc1)(COC(=O)Nc1ccccc1)CS2(=O)=O measurement_target="vanilloid receptor 1 (VR1/TRPV1) of the rat (Rattus norvegicus)" cat="NOT MET"
smiles_entry=O=C(Nc1ccccc1)OCC1(COC(=O)Nc2ccccc2)CSc2ccccc2C1=O measurement_target="vanilloid receptor 1 (VR1/TRPV1) of the rat (Rattus norvegicus)" cat="NOT MET"

Could you tell me if the measured activation at 10 µM of COc1ccc(NC(=O)OCC2(COC(=O)Nc3ccc(OC)cc3)CSc3ccccc3C2=O)cc1 reaches 40% or more?
NOT MET
